- Test system: S. pneumoniae ATCC 49619
- Assay Protocol: MIC
- Type: cell-based
Readout Name: MIC S. pneumoniae ATCC 49619 (µg/mL)

* CC[C@H]1OC(=O)[C@@](C)(F)C(=O)[C@H](C)[C@@H](O[C@@H]2O[C@H](C)[C@@H](OC(=O)Nc3ccccc3)[C@H](N(C)C)[C@H]2O)[C@@](C)(OC)C[C@@H](C)C(=O)[C@H](C)[C@H]2N(CCCCn3cc(-c4ccccn4)nn3)C(=O)O[C@]12C [Example 27] | 32
* CCC1OC(=O)C(C)C(OC2OCC(O)C(N(C)C)C2O)C(C)C(OC2OC(C)CC(N(C)C)C2O)C(C)(O)CC(C)CN(C(C)=O)C(C)C2OC(=O)OC12C (mixture of isomers) [Example 40] | 64

====

Reported MMP9 inhibition (%) is given for each of the following compounds.
- Test system: MMP9
- Assay Protocol: PMA-induced MMP9 expression in U937 cells (gelatin zymography)
- Format: cell-based, human
- Settings: test concentration not given; bracketed second value not explained
Readout Name: MMP9 inhibition (%)

- CC[C@H]1OC(=O)[C@H](C)C(=O)[C@H](C)[C@@H](O[C@@H]2O[C@H](C)[C@@H](OC(C)=O)[C@H](NC(C)=O)[C@H]2OC(C)=O)[C@@](C)(OC)C[C@@H](C)C(=O)[C@H](C)[C@H]2N(CCCCn3cc(-c4ccccn4)nn3)C(=O)O[C@]12C: 32 (31) %
- CCC1OC(=O)C(C)C(=O)C(C)C(OC2OC(C)CC(N(C)C)C2O)C(C)(OC)CC(C)C(=O)C(C)C2N(CCCCN)C(=O)OC12C (stereo not shown): 55 (43) %
- CC[C@H]1OC(=O)[C@H](C)C(=O)[C@H](C)[C@@H](O[C@@H]2O[C@H](COC(=O)c3ccccc3)[C@@H](N)[C@@H]2O)[C@@](C)(OC)C[C@@H](C)C(=O)[C@H](C)[C@H]2N(CCCCn3cc(-c4ccccn4)nn3)C(=O)O[C@]12C: 2%
- CC[C@H]1OC(=O)[C@H](C)[C@@H](O[C@H]2C[C@@](C)(OC)[C@@H](O)[C@H](C)O2)[C@H](C)[C@@H](O[C@@H]2O[C@H](C)C[C@H](N(C)C)[C@H]2O)[C@](C)(OC)C[C@@H](C)C(=O)[C@H](C)[C@@H](O)[C@]1(C)O [CLR, clarithromycin, reference compound]: 8 (22) %

====

- Tested on: E. faecium ATCC 19434
- Assay Protocol: MIC
- Format: cell-based
Readout Name: MIC E. faecium ATCC 19434 (µg/mL)

- CC[C@H]1OC(=O)[C@H](C)C(=O)[C@H](C)[C@@H](O[C@@H]2O[C@H](C)C[C@H](N(C)C)[C@H]2O)[C@@](C)(OC)C[C@@H](C)CN(C(=O)CCCn2cc(-c3ccc(Br)cc3)nn2)[C@H](C)[C@@H](O)[C@]1(C)O [Example 41]: 64
- CCC1OC(=O)C(C)C(=O)C(C)C(OC2OC(C)CC(N(C)C)C2O)C(C)(OC)CC(C)C(=O)C(C)C2N(CCCCN)C(=O)OC12C (stereo not drawn) [Example 1]: 4
- CC[C@H]1OC(=O)[C@H](C)C(=O)[C@H](C)[C@@H](O[C@@H]2O[C@H](C)[C@@H](OC(C)=O)[C@H](NC(C)=O)[C@H]2OC(C)=O)[C@@](C)(OC)C[C@@H](C)C(=O)[C@H](C)[C@H]2N(CCCCn3cc(-c4ccccn4)nn3)C(=O)O[C@]12C [Example 23]: 16
- CCC1OC(=O)C(C)C(OC2CC(C)(OC)C(O)C(C)O2)C(C)C(OC2OC(C)CC(N(C)C)C2O)C(C)(O)CC(C)CN(C)C(C)C2OC(=O)OC12C (stereo not drawn) [Example 42]: 8

====

Reported MIC S. pneumoniae ATCC 49619 by item:
- System: S. pneumoniae ATCC 49619
- Assay Protocol: MIC
- Assay type: cell-based
Readout Name: MIC S. pneumoniae ATCC 49619 (µg/mL)

• CC[C@H]1OC(=O)[C@H](C)C(=O)[C@H](C)[C@@H](O[C@@H]2O[C@H](C)C[C@H](N(C)C)[C@H]2O)[C@@](C)(OC)C[C@@H](C)CN(C(=O)CCCn2cc(-c3ccc(Br)cc3)nn2)[C@H](C)[C@@H](O)[C@]1(C)O = 32
• CC[C@H]1OC(=O)[C@H](C)C(=O)[C@H](C)[C@@H](O[C@@H]2O[C@H](C)[C@@H](OC(C)=O)[C@H](NC(C)=O)[C@H]2OC(C)=O)[C@@](C)(OC)C[C@@H](C)C(=O)[C@H](C)[C@H]2N(CCCCn3cc(-c4ccccn4)nn3)C(=O)O[C@]12C = 4

====

The following molecules are listed with their measured Cell Toxicity (% cell death) values.
- Assay type: cell-based
- Settings: test concentration not given
Readout Name: Cell Toxicity (% cell death) (%)

• CCC1OC(=O)C(C)(F)C(=O)C(C)C(OC2OC(C)CC(N(C)C)C2O)C(C)(OC)CC(C)C(=O)C(C)C2N(CCCCn3cc(Cn4nnc5ccccc54)nn3)C(=O)OC12C (stereo not shown) = 11
• CC[C@H]1OC(=O)[C@H](C)C(=O)[C@H](C)[C@@H](O[C@@H]2O[C@H](C)[C@@H](OC(C)=O)[C@H](NC(C)=O)[C@H]2OC(C)=O)[C@@](C)(OC)C[C@@H](C)C(=O)[C@H](C)[C@H]2N(CCCCn3cc(-c4ccccn4)nn3)C(=O)O[C@]12C = 9
• CC[C@H]1OC(=O)[C@H](C)C(=O)[C@H](C)[C@@H](O[C@@H]2O[C@H](C)C[C@H](N(C)C)[C@H]2O)[C@@](C)(OC)C[C@@H](C)CN(C(=O)CCCn2cc(-c3ccc(Br)cc3)nn2)[C@H](C)[C@@H](O)[C@]1(C)O = 8
• CCC1OC(=O)C(C)C(OC2OCC(O)C(NC)C2O)C(C)C(OC2OC(C)CC(N(C)C)C2O)C(C)(O)CC(C)CN(C(C)=O)C(C)C2OC(=O)OC12C (mixture of isomers) = 11

====

- Test system: H. influenzae ATCC 49247
- Assay Protocol: MIC
- Type: cell-based
Readout Name: MIC H. influenzae ATCC 49247

• CC[C@H]1OC(=O)[C@H](C)C(=O)[C@H](C)[C@@H](O[C@@H]2O[C@H](COC(=O)c3ccccc3)[C@@H](N)[C@@H]2O)[C@@](C)(OC)C[C@@H](C)C(=O)[C@H](C)[C@H]2N(CCCCn3cc(-c4ccccn4)nn3)C(=O)O[C@]12C = > 64 mg/L
• CC[C@H]1OC(=O)[C@@](C)(F)C(=O)[C@H](C)[C@@H](O[C@@H]2O[C@H](C)[C@@H](OC(=O)Nc3ccccc3)[C@H](N(C)C)[C@H]2O)[C@@](C)(OC)C[C@@H](C)C(=O)[C@H](C)[C@H]2N(CCCCn3cc(-c4ccccn4)nn3)C(=O)O[C@]12C = > 64 mg/L
• CC[C@H]1OC(=O)[C@H](C)C(=O)[C@H](C)[C@@H](O[C@H]2C[C@@H](N(C)C)[C@H](O)[C@@H](C)O2)[C@@](C)(OC)C[C@@H](C)C(=O)[C@H](C)[C@H]2N(CCCCn3cc(-c4ccccn4)nn3)C(=O)O[C@]12C = > 64 mg/L

====

Entries and their MIC S. pneumoniae ATCC 49619 values follow.
- Tested on: S. pneumoniae ATCC 49619
- Assay Protocol: MIC
- Type: cell-based
Readout Name: MIC S. pneumoniae ATCC 49619

* CCC1OC(=O)C(C)C(=O)C(C)C(OC2OC(C)CC(N(C)C)C2O)C(C)(OC)CC(C)C(=O)C(C)C2N(CCCCN)C(=O)OC12C (stereo not drawn) | ≤ 0.125 µg/mL
* CCC1OC(=O)C(C)C(OC2CC(C)(OC)C(O)C(C)O2)C(C)C(OC2OC(C)CC(N(C)C)C2O)C(C)(O)CC(C)CN(C)C(C)C2OC(=O)OC12C (stereo not drawn) | ≤ 0.125 µg/mL
* CCC1OC(=O)C(C)(F)C(=O)C(C)C(OC2OC(C)CC(N(C)C)C2O)C(C)(OC)CC(C)C(=O)C(C)C2N(CCCCn3cc(Cn4nnc5ccccc54)nn3)C(=O)OC12C (stereo not drawn) | ≤ 0.125 µg/mL

FYI, the data here is from patent US9937194B1.
